# System: CYP3A
# Assay type: in vivo, human (healthy volunteers)
# STUDY CONDITIONS: human, plasma, po, 8 mg, AUC0-∞, Post-Echinacea (28 days, 500 mg three times daily); midazolam 8 mg single oral dose; geometric mean (90% CI)

{"SMILES NOTATION": "Cc1ncc2n1-c1ccc(Cl)cc1C(c1ccccc1F)=NC2", "AUC(0-inf) [ng·h/mL]": 104}
